Test system: SN12C
Test: Cytotoxicity against human SN12C cells assessed as cell growth at 10 uM
Format: functional
Details: Homo sapiens, SN12C; read-out: Activity
Measured growth at 10 µM by item
Lab book: enter the figure in %, no units written.

Illustrative cases are given below, each with its answer.
Just so you know, measured growth at 10 µM for O=C(Nc1cc(C(F)(F)F)cc(C(F)(F)F)c1)Nc1nccc(-c2ccc(Nc3ccccc3)nc2)n1 came out at 106

Just so you know, measured growth at 10 µM for CC(=O)c1ccccc1-c1ccc(-c2ccnc(NC(=O)Nc3cc(C(F)(F)F)cc(C(F)(F)F)c3)n2)cn1.Cl came out at 88.4

Just so you know, measured growth at 10 µM for CC(=O)c1ccc(-c2ccc(-c3ccnc(Nc4cc(C(F)(F)F)cc(C(F)(F)F)c4)n3)cn2)cc1 came out at 93.6

Further cases:
Just so you know, measured growth at 10 µM for CC(=O)c1ccccc1-c1ccc(-c2ccnc(NC(=O)Nc3cc(N4CCOCC4)cc(C(F)(F)F)c3)n2)cn1 came out at 52.3
